The entries below come with measured half-life values attached.
# MEASUREMENT_PROTOCOL: in vitro
# RUN_CONDITIONS: mouse, liver microsomes

> print(dat)
                                  structure  value.type  result
1  C[C@@H]1CN(c2ccc(F)cc2C(F)(F)F)CCN1S(=O)(=O)c1ccc(C#N)cc1Cl   half-life  13 min
2  C[C@@H]1CN(c2ccc(F)cc2C(F)(F)F)CCN1S(=O)(=O)c1ccc(-c2nnn[nH]2)cc1   half-life  14 min
3  C[C@@H]1CN(c2ccc(F)cc2C(F)(F)F)CCN1S(=O)(=O)c1ccc(N2CCOCC2)cc1F   half-life  22 min

We next turn to a different molecule, shown below.
Look up half-life: C[C@@H]1CN(c2ccc(F)cc2C(F)(F)F)CCN1S(=O)(=O)c1ccc(N2CCC(C(=O)O)CC2)cc1Cl
> 30 min

###

# MEASUREMENT_PROTOCOL: Oral bioavailability in C57/B6 mouse at 30 mg/kg
# Assay type: ADME, organism-based
# RUN_CONDITIONS: in vivo
VALUE_TYPE: bioavailability (%)
# output: bare number, implied unit %

> print(dat)
                                  structure       value.type  numeric.value
1  C[C@@H]1CN(c2ccc(F)cc2C(F)(F)F)CCN1S(=O)(=O)c1ccc(C(N)=O)cc1  bioavailability             43

Look up bioavailability: C[C@@H]1CN(c2ccc(F)cc2C(F)(F)F)CCN1S(=O)(=O)c1ccc(N2CCOCC2)cc1Cl
12

###

The entries below come with measured half-life values attached.
# MEASUREMENT_PROTOCOL: in vitro
# RUN_CONDITIONS: mouse, liver microsomes
# output: bare number, implied unit min

> print(dat)
                                  structure  value.type  numeric.value
1  C[C@@H]1CN(c2ccc(F)cc2C(F)(F)F)CCN1S(=O)(=O)c1ccc(OC(C)(C)C)cc1Cl   half-life              9
2  C[C@@H]1CN(c2ccc(F)cc2C(F)(F)F)CCN1S(=O)(=O)c1ccc(OC(F)(F)F)cc1   half-life             12

Look up half-life: C[C@@H]1CN(c2ccc(S(=O)(=O)N3CCN(c4ccc(F)cc4C(F)(F)F)C[C@H]3C)c(Cl)c2)C[C@H](C)O1
7

###

The entries below come with measured half-life values attached.
# MEASUREMENT_PROTOCOL: in vitro
# RUN_CONDITIONS: mouse, liver microsomes
# output: bare number, implied unit min

Look up half-life: C[C@@H]1CN(c2ccc(F)cc2C(F)(F)F)CCN1S(=O)(=O)c1ccc(OC(F)F)cc1Cl
9

Same read-out for C[C@@H]1CN(c2ccc(F)cc2C(F)(F)F)CCN1S(=O)(=O)c1ccc(C(N)=O)cc1 ?
21

Same read-out for C[C@@H]1CN(c2ccc(F)cc2C(F)(F)F)CCN1S(=O)(=O)c1ccc(N2CCCCC2)cc1 ?
9

Same read-out for C[C@@H]1CN(c2ccc(F)cc2C(F)(F)F)CCN1S(=O)(=O)c1ccc(Br)cc1Cl ?
21

Same read-out for C[C@@H]1CN(c2ccc(F)cc2C(F)(F)F)CCN1S(=O)(=O)c1ccc(N2CCCC2)cc1Cl ?
5

Cited source: ChEMBL document CHEMBL1152435
